Experiment: AUC (0 to infinity) in CD1 mouse at 10 mg/kg, ip
Type: ADME, organism-based
Parameters: time infinity, dose 10 mg/kg, route intraperitoneal
Details: plasma
MEASURED_METRIC: AUC(0-inf) (µM·h)
Please state the figure in µM·h; there is no need to write the unit.

# input AUC(0-inf) for Cc1ccc([N+](=O)[O-])cc1S(=O)(=O)N(CCO)/N=C/c1cnn2ccc(C#N)cc12 ?
# output 3.16

###

This section presents compounds with their documented log10 of IC50 values.
Target: Phosphatidylinositol 4,5-bisphosphate 3-kinase catalytic subunit delta isoform (Homo sapiens, UniProt O00329)
Sequence (O00329 whole entry): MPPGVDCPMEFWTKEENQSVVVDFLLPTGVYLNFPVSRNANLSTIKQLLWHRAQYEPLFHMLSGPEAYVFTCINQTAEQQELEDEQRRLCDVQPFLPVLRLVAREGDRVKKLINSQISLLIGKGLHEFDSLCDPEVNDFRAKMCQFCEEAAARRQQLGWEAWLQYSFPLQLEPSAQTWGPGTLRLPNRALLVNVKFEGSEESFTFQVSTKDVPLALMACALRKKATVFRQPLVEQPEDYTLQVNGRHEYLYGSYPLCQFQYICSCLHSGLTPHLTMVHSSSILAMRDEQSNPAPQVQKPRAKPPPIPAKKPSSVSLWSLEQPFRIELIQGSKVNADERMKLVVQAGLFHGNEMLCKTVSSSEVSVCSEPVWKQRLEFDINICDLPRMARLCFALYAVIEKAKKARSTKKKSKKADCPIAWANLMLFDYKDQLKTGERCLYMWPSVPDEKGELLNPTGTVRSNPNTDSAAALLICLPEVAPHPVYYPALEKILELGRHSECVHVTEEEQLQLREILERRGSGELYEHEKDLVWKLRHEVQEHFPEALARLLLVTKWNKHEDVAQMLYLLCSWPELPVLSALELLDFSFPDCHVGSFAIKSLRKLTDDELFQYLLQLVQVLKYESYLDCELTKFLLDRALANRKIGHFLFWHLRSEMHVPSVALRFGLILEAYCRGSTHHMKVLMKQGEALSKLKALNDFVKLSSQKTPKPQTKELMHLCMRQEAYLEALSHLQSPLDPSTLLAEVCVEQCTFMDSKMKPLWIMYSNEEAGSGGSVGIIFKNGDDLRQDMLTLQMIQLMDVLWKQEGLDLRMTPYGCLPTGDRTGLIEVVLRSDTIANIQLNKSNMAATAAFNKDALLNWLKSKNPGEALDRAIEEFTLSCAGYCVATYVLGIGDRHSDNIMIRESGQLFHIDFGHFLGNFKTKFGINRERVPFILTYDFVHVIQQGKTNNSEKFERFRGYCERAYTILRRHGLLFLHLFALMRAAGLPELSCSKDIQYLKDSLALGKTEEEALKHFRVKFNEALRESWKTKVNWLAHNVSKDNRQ
Test: Inhibition of recombinant PI3K p110delta using L-alpha-phosphatidylinositol as substrate and [gamma33P]ATP after 60 mins by thin layer chromatographic technique
Values reflect log10 of reported IC50 (µM).

Solved entries:
[[record]]
structure_as_smiles = "Cc1ccc([N+](=O)[O-])cc1C(=O)N(C)/N=C/c1cnn2ccc(C#N)cc12"
reported_result = -2.07

[[record]]
structure_as_smiles = "Cc1ccc([N+](=O)[O-])cc1S(=O)(=O)N(CCN1CCCCC1)/N=C/c1cnn2ccc(C#N)cc12"
reported_result = -1.05

[[record]]
structure_as_smiles = "CCN(CC)CCN(/N=C/c1cnn2ccc(C#N)cc12)S(=O)(=O)c1cc([N+](=O)[O-])ccc1C"
reported_result = -0.96

[[record]]
structure_as_smiles = "Cc1ccccc1S(=O)(=O)N(C)/N=C/c1cnn2ccc(C#N)cc12"
reported_result = 0.30

[[record]]
structure_as_smiles = "Cc1ccc(C#N)cc1S(=O)(=O)N(C)/N=C/c1cnn2ccc(C#N)cc12"
reported_result = -1.23

[[record]]
structure_as_smiles = "Cc1ccc([N+](=O)[O-])cc1S(=O)(=O)N(CCN1CCOCC1)/N=C/c1cnn2ccc(C#N)cc12"
reported_result = -2.00


Okay, now this compound:
# input log10 of IC50 for CCc1ccc([N+](=O)[O-])cc1S(=O)(=O)N(C)/N=C/c1cnn2ccc(C#N)cc12 ?
# output -1.89

###

Biological target: Phosphatidylinositol 4,5-bisphosphate 3-kinase catalytic subunit alpha isoform (Homo sapiens, UniProt P42336)
Sequence (P42336 whole entry, canonical isoform): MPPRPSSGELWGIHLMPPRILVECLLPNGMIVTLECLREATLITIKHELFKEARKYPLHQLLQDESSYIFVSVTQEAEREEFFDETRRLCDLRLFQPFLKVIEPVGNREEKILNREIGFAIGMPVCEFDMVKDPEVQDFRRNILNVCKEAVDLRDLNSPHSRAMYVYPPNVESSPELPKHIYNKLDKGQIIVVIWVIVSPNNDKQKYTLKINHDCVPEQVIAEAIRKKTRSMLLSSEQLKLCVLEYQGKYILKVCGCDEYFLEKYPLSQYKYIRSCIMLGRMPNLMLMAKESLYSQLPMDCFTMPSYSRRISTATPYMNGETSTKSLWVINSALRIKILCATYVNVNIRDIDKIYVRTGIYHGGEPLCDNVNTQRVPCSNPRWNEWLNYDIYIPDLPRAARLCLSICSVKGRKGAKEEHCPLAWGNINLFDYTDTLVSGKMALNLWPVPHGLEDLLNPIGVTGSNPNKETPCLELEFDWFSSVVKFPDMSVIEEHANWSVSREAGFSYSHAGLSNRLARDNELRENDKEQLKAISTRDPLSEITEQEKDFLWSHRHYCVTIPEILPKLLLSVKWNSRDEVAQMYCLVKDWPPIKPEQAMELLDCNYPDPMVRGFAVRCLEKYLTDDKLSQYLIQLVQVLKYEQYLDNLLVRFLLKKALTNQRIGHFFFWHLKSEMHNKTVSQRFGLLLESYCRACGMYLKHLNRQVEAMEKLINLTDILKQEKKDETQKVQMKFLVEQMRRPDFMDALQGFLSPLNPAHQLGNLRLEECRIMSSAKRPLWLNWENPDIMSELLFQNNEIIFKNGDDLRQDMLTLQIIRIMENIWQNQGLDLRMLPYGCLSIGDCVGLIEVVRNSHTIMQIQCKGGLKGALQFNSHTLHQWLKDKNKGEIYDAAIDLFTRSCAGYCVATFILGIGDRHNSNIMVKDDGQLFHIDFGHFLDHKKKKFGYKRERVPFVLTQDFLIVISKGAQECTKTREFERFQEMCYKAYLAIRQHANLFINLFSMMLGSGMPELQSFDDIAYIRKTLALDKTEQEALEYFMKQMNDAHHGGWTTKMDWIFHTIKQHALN
Assay: Inhibition of recombinant PI3K p110alpha using L-alpha-phosphatidylinositol as substrate and [gamma33P]ATP after 60 mins by thin layer chromatographic technique
This section presents molecules with their documented IC50 values.
Please state the figure in nM; there is no need to write the unit.

[[record]]
structure_as_smiles = "Cc1ccc(Br)cc1S(=O)(=O)N(C)/N=C/c1cnn2ccc(C#N)cc12"
measured_metric = "IC50"
reported_result = 13

[[record]]
structure_as_smiles = "Cc1ccc(Cl)cc1S(=O)(=O)N(C)/N=C/c1cnn2ccc(C#N)cc12"
measured_metric = "IC50"
reported_result = 13

[[record]]
structure_as_smiles = "Cc1ccc(S(C)(=O)=O)cc1S(=O)(=O)N(C)/N=C/c1cnn2ccc(C#N)cc12"
measured_metric = "IC50"
reported_result = 350

[[record]]
structure_as_smiles = "Cc1ccc(C#N)cc1S(=O)(=O)N(C)/N=C/c1cnn2ccc(C#N)cc12"
measured_metric = "IC50"
reported_result = 2.4

[[record]]
structure_as_smiles = "CN(/N=C/c1cnn2ccc(C#N)cc12)S(=O)(=O)c1cccc([N+](=O)[O-])c1"
measured_metric = "IC50"
reported_result = 36

[[record]]
structure_as_smiles = "CCN(/N=C/c1cnn2ccc(C#N)cc12)S(=O)(=O)c1cc([N+](=O)[O-])ccc1C"
measured_metric = "IC50"
reported_result = 0.5


# input IC50 for Cc1ccc([N+](=O)[O-])cc1S(=O)(=O)N(CCN(C)C)/N=C/c1cnn2ccc(C#N)cc12 ?
# output 77

# input IC50 for CCN(CC)CCN(/N=C/c1cnn2ccc(C#N)cc12)S(=O)(=O)c1cc([N+](=O)[O-])ccc1C ?
# output 82

# input IC50 for COc1ccc([N+](=O)[O-])cc1S(=O)(=O)N(C)/N=C/c1cnn2ccc(C#N)cc12 ?
# output 0.8

# input IC50 for Cc1ccc(F)cc1S(=O)(=O)N(C)/N=C/c1cnn2ccc(C#N)cc12 ?
# output 55

###

Biological target: Phosphatidylinositol 4,5-bisphosphate 3-kinase catalytic subunit beta isoform (Homo sapiens, UniProt P42338)
Sequence (P42338 whole entry, canonical isoform): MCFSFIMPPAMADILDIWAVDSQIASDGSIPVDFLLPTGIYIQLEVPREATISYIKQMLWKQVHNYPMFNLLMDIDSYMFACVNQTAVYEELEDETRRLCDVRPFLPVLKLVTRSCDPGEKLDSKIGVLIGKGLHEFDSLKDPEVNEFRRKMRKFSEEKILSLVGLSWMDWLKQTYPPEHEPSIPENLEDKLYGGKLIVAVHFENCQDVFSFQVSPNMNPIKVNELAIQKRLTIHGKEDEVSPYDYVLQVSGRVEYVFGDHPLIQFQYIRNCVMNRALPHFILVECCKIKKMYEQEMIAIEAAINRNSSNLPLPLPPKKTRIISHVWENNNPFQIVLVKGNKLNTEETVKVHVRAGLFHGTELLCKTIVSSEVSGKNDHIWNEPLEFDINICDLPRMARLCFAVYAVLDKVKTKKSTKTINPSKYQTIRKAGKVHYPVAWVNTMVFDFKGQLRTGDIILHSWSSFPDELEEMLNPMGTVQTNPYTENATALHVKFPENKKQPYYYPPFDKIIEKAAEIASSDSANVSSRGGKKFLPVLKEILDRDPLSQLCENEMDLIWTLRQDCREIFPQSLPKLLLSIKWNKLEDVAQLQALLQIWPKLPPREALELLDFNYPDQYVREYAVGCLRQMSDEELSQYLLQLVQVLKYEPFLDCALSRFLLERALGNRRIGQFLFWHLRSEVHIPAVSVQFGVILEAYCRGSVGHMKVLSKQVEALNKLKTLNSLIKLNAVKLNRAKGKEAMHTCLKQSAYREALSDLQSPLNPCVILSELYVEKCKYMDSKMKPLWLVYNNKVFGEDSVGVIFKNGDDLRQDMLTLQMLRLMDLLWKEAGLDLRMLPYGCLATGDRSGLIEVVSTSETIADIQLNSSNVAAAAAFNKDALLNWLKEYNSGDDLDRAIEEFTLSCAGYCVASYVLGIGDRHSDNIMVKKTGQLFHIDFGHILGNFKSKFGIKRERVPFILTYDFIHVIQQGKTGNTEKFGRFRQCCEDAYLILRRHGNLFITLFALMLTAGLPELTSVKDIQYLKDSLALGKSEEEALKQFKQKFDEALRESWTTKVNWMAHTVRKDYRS
Test: Inhibition of recombinant PI3K p110beta using L-alpha-phosphatidylinositol as substrate and [gamma33P]ATP after 60 mins by thin layer chromatographic technique
MEASURED_METRIC: pIC50
Note on units: pIC50 is unitless, being -log10 of a concentration expressed in mol/L.

Solved entries:
[[record]]
structure_as_smiles = "Cc1ccc([N+](=O)[O-])cc1C(=O)N(C)/N=C/c1cnn2ccc(C#N)cc12"
reported_result = 7.17

[[record]]
structure_as_smiles = "Cc1ccc([N+](=O)[O-])cc1S(=O)(=O)N(CCN(C)C)/N=C/c1cnn2ccc(C#N)cc12"
reported_result = 6.31


Okay, now this molecule:
# input pIC50 for CN(/N=C/c1cnn2ccc(C#N)cc12)S(=O)(=O)c1cccc([N+](=O)[O-])c1 ?
# output 5.92

###

Target: Phosphatidylinositol 4,5-bisphosphate 3-kinase catalytic subunit alpha isoform (Homo sapiens)
Test: Inhibition of recombinant PI3K p110alpha using L-alpha-phosphatidylinositol as substrate and [gamma33P]ATP after 60 mins by thin layer chromatographic technique
This section presents molecules with their documented pIC50 values.
Note on units: pIC50 is unitless, being -log10 of a concentration expressed in mol/L.

[[record]]
structure_as_smiles = "Cc1ccc(C(F)(F)F)cc1S(=O)(=O)N(C)/N=C/c1cnn2ccc(C#N)cc12"
reported_result = 7.68


# input pIC50 for CN(/N=C/c1cnn2ccc(C#N)cc12)S(=O)(=O)c1cc([N+](=O)[O-])ccc1Cl ?
# output 9.30

# input pIC50 for CN(/N=C/c1cnn2ccc(C#N)cc12)S(=O)(=O)c1cc([N+](=O)[O-])ccc1F ?
# output 8.33

# input pIC50 for Cc1ccc([N+](=O)[O-])cc1S(=O)(=O)N(CCN1CCOCC1)/N=C/c1cnn2ccc(C#N)cc12 ?
# output 8.35

###

Assay: Terminal half life in CD1 mouse at 10 mg/kg, ip
Type: ADME, organism-based
Parameters: dose 10 mg/kg, route intraperitoneal
Settings: in vivo, read-out: beta t1/2 (converted)
MEASURED_METRIC: half-life

# input half-life for Cc1ccc([N+](=O)[O-])cc1S(=O)(=O)N(CCO)/N=C/c1cnn2ccc(C#N)cc12 ?
# output 1.13 h

###

Biological target: Phosphatidylinositol 4,5-bisphosphate 3-kinase catalytic subunit alpha isoform (Homo sapiens, UniProt P42336, H1047R)
Sequence (P42336 whole entry H1047R, canonical isoform): as the sequence (P42336 whole entry, canonical isoform) above, with H1047R counted along it
Assay: Inhibition of recombinant PI3K p110alpha H1047R mutant using L-alpha-phosphatidylinositol as substrate and [gamma33P]ATP after 60 mins by thin layer chromatographic technique
MEASURED_METRIC: pIC50
Note on units: pIC50 is unitless, being -log10 of a concentration expressed in mol/L.

# input pIC50 for Cc1ccc([N+](=O)[O-])cc1S(=O)(=O)N(CCO)/N=C/c1cnn2ccc(C#N)cc12 ?
# output 9.10
